target: Amino acid transporter (Rattus norvegicus) (UniProt Q9Z1J7); assay: Inhibition of rat ASCT2 expressed in HEK293 cells assessed as outward current by measuring reduction in SCN anion inward current at 1 mM in presence of NaCl and NaSCN by whole cell patch-clamp method; type: cell-based
Sequence (Q9Z1J7 as listed by the source): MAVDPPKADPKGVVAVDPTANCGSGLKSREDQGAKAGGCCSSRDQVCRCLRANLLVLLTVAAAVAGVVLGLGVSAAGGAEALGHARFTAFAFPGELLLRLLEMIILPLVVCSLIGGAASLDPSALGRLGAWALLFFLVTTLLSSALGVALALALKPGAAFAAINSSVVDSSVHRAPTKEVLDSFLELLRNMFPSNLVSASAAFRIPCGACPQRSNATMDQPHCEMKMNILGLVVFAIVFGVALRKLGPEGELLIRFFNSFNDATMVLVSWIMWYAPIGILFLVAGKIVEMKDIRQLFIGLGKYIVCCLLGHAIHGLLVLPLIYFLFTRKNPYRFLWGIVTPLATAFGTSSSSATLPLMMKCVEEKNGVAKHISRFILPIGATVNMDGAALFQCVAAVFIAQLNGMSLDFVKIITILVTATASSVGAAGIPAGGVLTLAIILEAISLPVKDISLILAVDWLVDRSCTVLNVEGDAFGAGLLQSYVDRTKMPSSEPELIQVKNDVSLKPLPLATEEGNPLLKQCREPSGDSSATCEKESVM
Activity calls are given as the source filed them. No cut-off for these calls is given here.
readout-name: inhibition

Known results for compounds:
compound: O=C(O)C1C[C@@H](Cc2ccc(F)cc2)CN1 (single isomer, unassigned)
value: Active
//
compound: Cc1ccccc1C[C@H]1CNC(C(=O)O)C1 (single isomer, unassigned)
value: Active
//
compound: O=C(O)C1C[C@@H](Cc2cccc(C(F)(F)F)c2)CN1 (single isomer, unassigned)
value: Active
//
compound: O=C(O)C1C[C@@H](Cc2ccccc2F)CN1 (single isomer, unassigned)
value: Active

Qu. Write down the reported inhibition of O=C(O)C1C[C@@H](Cc2ccccc2C(F)(F)F)CN1 (single isomer, unassigned) , test system: Amino acid transporter (Rattus norvegicus) (UniProt Q9Z1J7).
Ans. Active
